Study the reported pIC50 values for ASK1 (Homo sapiens (Human), UniProt Q99683) given below; they originate from different publications.
pIC50: −log10 of the molar value.

Prompt: Name the reported pIC50 value associated with the compound CC(C)n1nnnc1-c1cccc(N2Cc3ccc(-n4cnc(C5CC5)c4)cc3C2=O)n1
Response: 7.00 to 8.00

Prompt: Now consider Cc1cc(F)c(C(=O)Nc2cccc(-c3nncn3C(C)C)n2)cc1C1CC1NC(=O)C(C)(C)C (centres unmarked) and answer again.
Response: < 8.00

Prompt: Now consider O=C1c2ccccc2CN1c1cccc(-n2nncc2C2CC2)n1 and answer again.
Response: > 6.70

Prompt: Now consider O=C(c1ccc2c(c1)CN(c1cccc(-c3nncn3C3CC3)n1)C2=O)N1CCCCC1 and answer again.
Response: > 6.70

Prompt: Now consider Cc1cc(F)c(C(=O)Nc2cccc(-c3nncn3[C@H](C)CO)n2)cc1C1CC1NC(=O)C(C)(C)C (some centres unmarked) and answer again.
Response: 8.00 to 9.00

Prompt: Now consider COCCS(=O)(=O)N1Cc2ccc(C(=O)Nc3cccc(-c4nnnn4C(C)C)n3)cc2C1 and answer again.
Response: < 6.00

Prompt: Now consider Cc1cc(F)c(C(=O)Nc2cccc3c2OCC(C)(C)n2cnnc2-3)cc1-n1cnc(C2CC2)c1 and answer again.
Response: 8.25

Prompt: Now consider CC(C)n1nnnc1-c1cccc(NC(=O)c2cc3sc(C4CC4)nc3cc2F)n1 and answer again.
Response: < 6.00

Prompt: Now consider Cc1cc(F)c(C(=O)Nc2cccc3c2OC[C@@H](CF)n2nnnc2-3)cc1-n1cnc(C2CC2)c1 and answer again.
Response: 8.35

Prompt: Now consider COc1cc2c(cc1C(=O)Nc1cccc(-c3nncn3C(C)C)n1)CN(C(=O)C(C)(C)O)CC2 and answer again.
Response: > 8.90

Prompt: Now consider CC(C)n1cnnc1-c1cccc(NC(=O)c2ccc3ncsc3c2)n1 and answer again.
Response: 6.00 to 7.00

Prompt: Now consider CC(C)n1nnnc1-c1cccc(NC(=O)c2cc3sc(N4CCOCC4)nc3cc2F)n1 and answer again.
Response: 7.00 to 8.00

Prompt: Now consider Cc1cc(F)c(C(=O)Nc2cccc(-c3nnnn3[C@H]3CCOC3)n2)cc1-c1cnn(C2CC2)c1 and answer again.
Response: 8.00 to 9.00

Prompt: Now consider CC(C)c1nnnn1-c1cccc(N2Cc3ccc(N4CCOCC4)cc3C2=O)n1 and answer again.
Response: 6.00 to 7.00

Prompt: Now consider Cc1ncccc1-c1ccc2c(c1)C(=O)N(c1cccc(-n3nnnc3C(C)C)n1)C2 and answer again.
Response: 6.00 to 7.00

Prompt: Now consider Cc1cc2c(s1)C(=O)N(c1cccc(-c3nncn3C3CC3)n1)C2 and answer again.
Response: > 6.00

Prompt: Now consider CC(C)n1cnnc1-c1cccc(NC(=O)c2cc3sc(N(C)C)nc3cc2F)n1 and answer again.
Response: 8.00 to 9.00

----------
Study the reported pIC50 values for ASK1 (Homo sapiens (Human), UniProt Q99683) given below; they originate from different publications.
pIC50: −log10 of the molar value.

Prompt: Name the reported pIC50 value associated with the molecule CC(C)n1nnnc1-c1cccc(NC(=O)c2cc3c(cn2)CCN(C(=O)OC(C)(C)C)C3)n1
Response: 7.00 to 8.00

Prompt: Now consider CC(C)CN(C)c1nc2cc(C(=O)Nc3cccc(-c4nnnn4C(C)C)n3)c(F)cc2nc1OC(C)C and answer again.
Response: < 6.00

Prompt: Now consider COc1cc(C)c(C2CC2NC(=O)OCC(F)(F)F)cc1C(=O)Nc1cccc(-c2nncn2C(C)C)n1 (centres unmarked) and answer again.
Response: 8.00 to 9.00

Prompt: Now consider CC(C)N1Cc2cc(F)c(C(=O)Nc3cccc(-c4nnnn4C(C)C)n3)cc2C1=O and answer again.
Response: < 6.00

Prompt: Now consider Cc1cnc(C(=O)Nc2cccc(-n3nnnc3C(C)C)n2)cc1-c1ccn(C(C)C)n1 and answer again.
Response: < 6.00

Prompt: Now consider CCc1ccc(C(=O)Nc2cccc(-c3nncn3C(C)C)n2)[nH]1 and answer again.
Response: 7.30

Prompt: Now consider CC(C)n1cnnc1-c1cccc(NC(=O)c2ccc3ccc(Cl)nc3c2)n1 and answer again.
Response: 6.00 to 7.00

Prompt: Now consider CC(C)Oc1cc2c(cc1-c1cccnc1)C(=O)N(c1cccc(-c3nncn3C3CC3)n1)C2 and answer again.
Response: > 6.70
